- testSystem: FAST (Halorhodospira halophila, UniProt P16113, C69G/D97P/F96I/M100R/Q99S/T101G/T95M/Y94W/Y98T)
- Construct: His-tag; made in house; host or cells: Rosetta(DE3)pLysS E. coli
- Sequence (P16113 whole entry C69G/Y94W/T95M/F96I/D97P/Y98T/Q99S/M100R/T101G): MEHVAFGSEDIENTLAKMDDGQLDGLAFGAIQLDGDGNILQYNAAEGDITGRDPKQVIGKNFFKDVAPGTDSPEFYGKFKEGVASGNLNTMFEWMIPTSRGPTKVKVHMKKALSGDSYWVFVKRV
- assayText: Spectroscopic properties of FAST:fluorogen complexes in PBS pH 7.4 (absorption, emission, quantum yield)
- Format: physicochemical
- assayConditions: PBS pH 7.4
Recorded F bound/F unbound, fluorescence activation upon FAST binding by entry

[
  {
    "compound": "Cc1cc(/C=C2\\SC(=S)NC2=O)cc(C)c1O",
    "observedMeasurement": 660
  },
  {
    "compound": "Cc1cc(/C=C2\\SC(=S)NC2=O)c(C)cc1O",
    "observedMeasurement": 430
  },
  {
    "compound": "CCOc1cc(/C=C2\\SC(=S)NC2=O)ccc1O",
    "observedMeasurement": 230
  },
  {
    "compound": "CCc1cc(/C=C2\\SC(=S)NC2=O)ccc1O",
    "observedMeasurement": 300
  },
  {
    "compound": "Cc1cc(C=C2SC(=S)NC2=O)ccc1O [HMBR, 4-hydroxy-3-methylbenzylidene rhodanine, reference compound]",
    "observedMeasurement": 300
  }
]

// query Give reported F bound/F unbound, fluorescence activation upon FAST binding value for `COc1cc(/C=C2\SC(=S)NC2=O)cc(OC)c1O`
// result 220

// query Give reported F bound/F unbound, fluorescence activation upon FAST binding value for `COc1cc(/C=C2\SC(=S)NC2=O)ccc1O`
// result 350
